Cited source for all entries: the OPERA property sets (Mansouri et al. 2018)

Response field label takes 1.0 when logP is strictly below 2 and 0.0 in all other cases.

Before answering, review these 5 worked examples.
COP(=O)(OC)Oc1cc(C)c([N+](=O)[O-])c(C)c1 ... 0.0
O=NN(CCCl)C(=O)NC1CCSCC1 ... 0.0
CC(=O)Oc1ccc(N=C2C=CC(=O)C=C2)cc1 ... 1.0
COc1cc(C)nn1-c1nc(C)cc(C)n1 ... 1.0
N#CC(C#N)=C(c1ccccc1)c1ccccc1 ... 0.0

Here is another molecule to look at.
Does `FC(F)(F)CCc1ccccc1` have logP strictly under 2?
0.0

* * *

experimental-readout: logP
Numbers only.

Quick one: give me logP for each item below, same order please.
1. Clc1cc(Cl)c(Cl)c(-c2c(Cl)ccc(Cl)c2Cl)c1
2. CSC(C)=NOC(=O)N(C)SN(C)C(=O)c1ccccc1Cl
3. COc1ccccc1N=NN(C)C
4. CC(C)C1OC(=O)c2ccccc21 (stereo unspecified)
5. COC12C(COC(N)=O)C3=C(C(=O)C(C)=C(N)C3=O)N1CC1C2N1C(=O)OCc1ccccc1 (stereo unspecified)
6. ClC1=CC(Cl)C(Cl)C(Cl)C1 (stereo unspecified)

7.15
2.5
2.34
2.1
1.34
3.72
